TEST_SYSTEM: DLL3 (Homo sapiens, UniProt Q9NYJ7)
Sequence (Q9NYJ7 27-618): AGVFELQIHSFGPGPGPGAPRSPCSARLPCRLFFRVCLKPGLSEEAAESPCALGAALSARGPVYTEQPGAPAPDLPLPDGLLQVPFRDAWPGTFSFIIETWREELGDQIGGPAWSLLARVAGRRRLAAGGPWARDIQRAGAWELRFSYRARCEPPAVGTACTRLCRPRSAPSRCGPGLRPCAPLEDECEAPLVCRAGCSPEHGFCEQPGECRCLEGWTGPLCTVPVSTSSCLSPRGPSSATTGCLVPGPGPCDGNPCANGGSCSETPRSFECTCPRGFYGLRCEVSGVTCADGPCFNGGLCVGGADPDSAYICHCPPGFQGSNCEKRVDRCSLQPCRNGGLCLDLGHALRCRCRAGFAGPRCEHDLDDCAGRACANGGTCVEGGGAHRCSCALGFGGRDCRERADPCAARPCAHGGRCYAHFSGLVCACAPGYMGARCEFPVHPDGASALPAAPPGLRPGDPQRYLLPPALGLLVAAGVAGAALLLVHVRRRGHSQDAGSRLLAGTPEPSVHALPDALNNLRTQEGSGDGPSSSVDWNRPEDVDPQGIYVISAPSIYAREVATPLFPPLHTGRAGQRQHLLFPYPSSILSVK
PROTOCOL: SPR KD, biotinylated human DLL3 on streptavidin chip (Table 8)
Parameters: biotin (biotinylated)
EXPERIMENTAL_SETUP: biotinylated human DLL3 on streptavidin sensor chip, 25° C., 1:1 binding model; read-out: SPR KD
pKd: −log10 of the molar value. *1 amine or outer side, *2 acyl side, *3 side chain or, on linkers, in order; H or OH if unused. Where a SMILES comes first, the peptide text is derived from it. Bridges are numbered along the chain shown (N, C = ends). CH2 = C([*:1])[*:2]
MEASUREMENT_NAME: pKd

Input: Fill blank: measured pKd of the compound CC[C@H](C)[C@H](NC(=O)[C@@H](NC(=O)[C@H](Cc1c[nH]c2ccccc12)NC(C)=O)[C@@H](C)O)C(=O)N[C@H]1CSCSC[C@@H](C(=O)N[C@@H](Cc2c[nH]c3ccccc23)C(=O)N2CCC[C@H]2C(N)=O)NC(=O)[C@H](CC(=O)O)NC(=O)[C@H](Cc2cnc[nH]2)NC(=O)[C@H](Cc2c[nH]c3ccccc23)NC(=O)[C@H](CC(N)=O)NC(=O)[C@H](CC(N)=O)NC1=O [compound 343] (Ac-WTICNNWHDCWP-NH2; linker 4-10 via CH2) is ____.
Output: 7.00 to 8.00
